All values here come from the supplement of paper PMC10567573.

B1: TAF7L (parent)
chain: PDVENEVKRLLRSDAEAVSTRWEV

variants of: B1; experiment: protein stability index of a GFP-peptide fusion (GPS, HEK-293T) (PSI 1-6); higher = more stable; conditions: c terminus: a fixed tail appended;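 also: lentivirally expressed fusions sorted by FACS into six bins by GFP to DsRed ratio, PSI derived from sequencing read proportions per bin multiplied by bin number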
Classification field: enter rule met for protein stability index values not below 3, rule not met for values below it.

# MUTANT, CAT
rows = [
    ("K8I", "rule not met"),
    ("V3M", "rule met"),
    ("R9D", "rule met"),
    ("D14W", "rule not met"),
    ("P1H", "rule not met"),
    ("E16H", "rule not met"),
    ("D14L", "rule not met"),
    ("A17C", "rule met"),
]

Prompt: Kindly determine if protein stability index recorded for E23A is above or exactly 3.
Response: rule met

Prompt: Could you please find out whether V18F has protein stability index that meets 3 or exceeds it?
Response: rule not met

Prompt: Can D2I be said to have protein stability index at or above 3?
Response: rule not met
